Catalogue of growth inhibition values
Experiment notes: OD615 S. cerevisiae growth inhibition, permissive medium, pilot counter-assay, permissive growth control for S. cerevisiae lifespan shortening project (AID 705)
Condition description: OD615, 24 h, at 10 µM, stronger effect = higher value
Answer with a number only, understood to be in %.

Some entries whose results are on file:
- Compound: "CCc1ccc(NC(=O)C2CC=CCC2C(=O)O)cc1 (configuration not stated)"
  Property name: "growth inhibition"
  Units symbol: "%"
  Number: 6.68
- Compound: "Cc1ccccc1OCC(O)Cn1c(NCCN(C)C)nc2c1c(=O)n(C)c(=O)n2C (configuration not stated)"
  Property name: "growth inhibition"
  Units symbol: "%"
  Number: -13.3
- Compound: "CC(C)NC(=O)NC(=O)COc1ncnc2sccc12"
  Property name: "growth inhibition"
  Units symbol: "%"
  Number: -4.68
- Compound: "CC1=C(C(=O)OCc2ccccc2)C(c2ccco2)C2=C(CC(C)(C)CC2=O)N1 (configuration not stated)"
  Property name: "growth inhibition"
  Units symbol: "%"
  Number: -13.1
- Compound: "CCOC(=O)C(C)Sc1ncnc2nc[nH]c12 (configuration not stated)"
  Property name: "growth inhibition"
  Units symbol: "%"
  Number: -1.5

Return reported growth inhibition; argument: `O=C(Nc1cc(=O)c2ccccc2o1)N1CCOCC1`
1.73

Return reported growth inhibition; argument: `COC(=O)CCSCC(=O)Nc1nnc(C)s1`
3.46

Return reported growth inhibition; argument: COc1ccc(CN2C(=O)CCC2(C)C(=O)NC2CCCC2)c(OC)c1 (configuration not stated)
-5.04

Return reported growth inhibition; argument: `COc1cccc(C(=O)Nc2cc(=O)n(C)c(=O)n2C)c1OC`
-1.72

Return reported growth inhibition; argument: `Cc1ccc2oc(=O)c3cc(C(=O)N4CCN(C(=O)c5ccco5)CC4)sc3c2c1`
-9.32

Return reported growth inhibition; argument: `Cc1ccccc1OCC(=O)Nc1ccccc1N1CCOCC1`
-1.63

Return reported growth inhibition; argument: `O=C(NC1CCCCCCC1)c1cnccn1`
0.775

---

Experiment notes: inhibitors of the yeast RAM network, pilot screen, dse1pr::URA3 reporter, 5-FOA selection (AID 869);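 also: 0% = DMSO wells with no growth and 100% = 10 µM 1-NA-PP1 with full growth; RAM network block rescues cells from 5-FOA so hits raise OD615 growth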
Condition description: S. cerevisiae dse1pr::URA3 5-FOA growth, OD615, 2 d; at 10 µM; stronger effect = higher value; strain carries analog-sensitive mutant Cbk1 kinase
Property name: inhibition (%)
Answer with a number only, understood to be in %.

- Compound: "O=C(c1ccc(-c2ccccc2)cc1)N1CCCC1"
  Property name: "inhibition"
  Number: 0.02
- Compound: "Cc1cc(/C=N/n2cnnc2)c(C)n1-c1cc(Cl)ccc1Cl"
  Property name: "inhibition"
  Number: 1.85
- Compound: "COc1ccc(NCCNc2ccc(OC)cc2)cc1"
  Property name: "inhibition"
  Number: 0.6
- Compound: "COc1ccc2nc(NC(=O)C3COc4ccccc4O3)sc2c1 (stereo not drawn)"
  Property name: "inhibition"
  Number: 2.08
- Compound: "c1ccc(-c2nnn(C34CC5CC(CC(C5)C3)C4)n2)cc1"
  Property name: "inhibition"
  Number: 0.215
- Compound: "CCCc1ccc2c(N)c(C#N)sc2n1"
  Property name: "inhibition"
  Number: 0.235
- Compound: "O=C(CN1CCN(C2CCCCC2)CC1)c1ccc2cc[nH]c2c1"
  Property name: "inhibition"
  Number: 1.9
- Compound: "O=C(CSc1cn(CCNC(=O)c2ccccc2)c2ccccc12)NCc1ccco1"
  Property name: "inhibition"
  Number: 0.64
- Compound: "Cc1nn(C)c(C)c1NS(=O)(=O)c1ccccc1"
  Property name: "inhibition"
  Number: 0.545
- Compound: "CCOc1ccc(C2c3c(oc4ccccc4c3=O)C(=O)N2c2ccc(C)cn2)cc1OC (stereo not drawn)"
  Property name: "inhibition"
  Number: 1.88

Return reported inhibition; argument: CCC1CCCCN1C(=O)CSc1nnc(-c2cccc(Cl)c2)o1 (stereo not drawn)
1.4

Return reported inhibition; argument: COc1ccc(C(=O)NCC(c2cccnc2)N2CCN(c3ccccc3)CC2)cc1OC (stereo not drawn)
1.5

Return reported inhibition; argument: `CCOC(=O)Cn1c(C(C)=O)nc2ccccc21`
0.28

Return reported inhibition; argument: `COc1ccc(C(=O)Nc2cccc(C(C)=O)c2)cc1S(=O)(=O)N1CCOCC1`
2.08

Return reported inhibition; argument: CC(=O)c1sc(N2C(=O)c3oc4ccccc4c(=O)c3C2c2ccc(C)o2)nc1C (stereo not drawn)
1.98

Return reported inhibition; argument: `Cc1nnc(NC(=O)CSc2nnc(Cc3cccn3C)n2C)s1`
0.91

Return reported inhibition; argument: `O=C(O)CCCC(=O)Nc1ccccc1Br`
1.11

Return reported inhibition; argument: `COc1cccc(NC(=O)c2cccnc2)c1`
0.55

Return reported inhibition; argument: `COC(=O)C1CCN(C(=O)c2ccccc2NC(C)=O)CC1`
-0.23

Return reported inhibition; argument: `CCOC(=O)c1oc2cc(O)c(CC)cc2c(=O)c1-c1ccc2c(c1)OCCO2`
3

Return reported inhibition; argument: `COc1ccc(C)c2sc(=NC(=O)c3ccc(C#N)cc3)n(C)c12`
0.96

Return reported inhibition; argument: `O=C(NC1CCCCC1)c1ccc(Br)o1`
0.915

Return reported inhibition; argument: `CCNc1nc(NCC)nc(-n2nc(C)cc2C)n1`
0.2

The measured values listed here are drawn from PubChem BioAssay.
